Data origin: ChEMBL document CHEMBL3739286

Exercise: for every item that follows, state its recorded pEC50.
protocol notes: Cytotoxicity against human 518A2 cells after 96 hrs by SRB assay
Type: functional, cell-based
condition summary: Homo sapiens, 518A2, 96 h; read-out: EC50
# log scale: pEC50 equals minus log10 of the concentration in mol/L

pEC50 in this record for `C=C(C)[C@@H]1CC[C@]2(C(=O)O)CC[C@]3(C)[C@H](CC[C@@H]4[C@@]5(C)CC[C@H](OC(C)=O)C(C)(C)[C@@H]5CC[C@]43C)[C@@H]12` : 5.35

pEC50 in this record for `C=C(C)[C@@H]1CC[C@]2(C(=O)N(C)OC)CC[C@]3(C)[C@H](CC[C@@H]4[C@@]5(C)CC[C@H](OC(C)=O)C(C)(C)[C@@H]5CC[C@]43C)[C@@H]12` : 4.76

pEC50 in this record for `C=C(C)[C@@H]1CC[C@]2(C(N)=O)CC[C@]3(C)[C@H](CC[C@@H]4[C@@]5(C)CCC(=O)C(C)(C)[C@@H]5CC[C@]43C)[C@@H]12` : 4.67

pEC50 in this record for `C=C(C)[C@@H]1CC[C@]2(C(N)=O)CC[C@]3(C)[C@H](CC[C@@H]4[C@@]5(C)CC[C@H](O)C(C)(C)[C@@H]5CC[C@]43C)[C@@H]12` : 5.00

pEC50 in this record for C=C(C)[C@@H]1CC[C@]2(C(=O)O)CC[C@]3(C)[C@H](CC[C@@H]4[C@@]5(C)CCC(=O)C(C)(C)[C@@H]5CC[C@]43C)[C@@H]12 [BETUNOLIC ACID] : 4.54

pEC50 in this record for `C=CCONC(=O)[C@]12CC[C@@H](C(=C)C)[C@@H]1[C@H]1CC[C@@H]3[C@@]4(C)CC[C@H](OC(C)=O)C(C)(C)[C@@H]4CC[C@@]3(C)[C@]1(C)CC2` : 5.12

====

protocol notes: Cytotoxicity against mouse NIH/3T3 cells after 96 hrs by SRB assay
Assay type: cell-based, NIH3T3
condition summary: Mus musculus, NIH3T3, 96 h; read-out: EC50
Mark Fulfilled for EC50 under 10 µM, Not fulfilled if at or over.

Input line: Would you kindly verify if EC50 of C=C(C)[C@@H]1CC[C@]2(COC(=O)NCC)CC[C@]3(C)[C@H](CC[C@@H]4[C@@]5(C)CC[C@H](OC(=O)NCC)C(C)(C)[C@@H]5CC[C@]43C)[C@@H]12 [BIS(ETHYLCARBAMATE)BETULIN] is strictly less than 10 µM?
Output line: Not fulfilled

Input line: Would you kindly verify if EC50 of C=C(C)[C@@H]1CC[C@]2(C(=O)O)CC[C@]3(C)[C@H](CC[C@@H]4[C@@]5(C)CCC(=O)C(C)(C)[C@@H]5CC[C@]43C)[C@@H]12 [BETUNOLIC ACID] is strictly less than 10 µM?
Output line: Not fulfilled

Input line: Would you kindly verify if EC50 of `C=CCONC(=O)[C@]12CC[C@@H](C(=C)C)[C@@H]1[C@H]1CC[C@@H]3[C@@]4(C)CCC(=O)C(C)(C)[C@@H]4CC[C@@]3(C)[C@]1(C)CC2` is strictly less than 10 µM?
Output line: Not fulfilled

Input line: Would you kindly verify if EC50 of `C=C(C)[C@@H]1CC[C@]2(COC(=O)NCC)CC[C@]3(C)[C@H](CC[C@@H]4[C@@]5(C)CC[C@H](OC(C)=O)C(C)(C)[C@@H]5CC[C@]43C)[C@@H]12` is strictly less than 10 µM?
Output line: Not fulfilled

Input line: Would you kindly verify if EC50 of `C=CCONC(=O)[C@]12CC[C@@H](C(=C)C)[C@@H]1[C@H]1CC[C@@H]3[C@@]4(C)CC[C@H](O)C(C)(C)[C@@H]4CC[C@@]3(C)[C@]1(C)CC2` is strictly less than 10 µM?
Output line: Fulfilled

Input line: Would you kindly verify if EC50 of `C=C(C)[C@@H]1CC[C@]2(COC(=O)NCCC)CC[C@]3(C)[C@H](CC[C@@H]4[C@@]5(C)CC[C@H](OC(=O)NCCC)C(C)(C)[C@@H]5CC[C@]43C)[C@@H]12` is strictly less than 10 µM?
Output line: Not fulfilled

Input line: Would you kindly verify if EC50 of `C=C(C)[C@@H]1CC[C@]2(COC(=O)NCC)CC[C@]3(C)[C@H](CC[C@@H]4[C@@]5(C)CC[C@H](O)C(C)(C)[C@@H]5CC[C@]43C)[C@@H]12` is strictly less than 10 µM?
Output line: Fulfilled

Input line: Would you kindly verify if EC50 of `C=C(C)[C@@H]1CC[C@]2(C(=O)NCc3ccccc3)CC[C@]3(C)[C@H](CC[C@@H]4[C@@]5(C)CC[C@H](O)C(C)(C)[C@@H]5CC[C@]43C)[C@@H]12` is strictly less than 10 µM?
Output line: Not fulfilled

Input line: Would you kindly verify if EC50 of `C=C(C)[C@@H]1CC[C@]2(CO)CC[C@]3(C)[C@H](CC[C@@H]4[C@@]5(C)CC[C@H](OC(C)=O)C(C)(C)[C@@H]5CC[C@]43C)[C@@H]12` is strictly less than 10 µM?
Output line: Not fulfilled

Input line: Would you kindly verify if EC50 of C=C(C)[C@@H]1CC[C@]2(CO)CC[C@]3(C)[C@H](CC[C@@H]4[C@@]5(C)CC[C@H](O)C(C)(C)[C@@H]5CC[C@]43C)[C@@H]12 [BETULIN] is strictly less than 10 µM?
Output line: Not fulfilled
